Just for reference, PubChem BioAssay (NCATS) is where these values come from.

- protocol.summary: Quantitative High-Throughput drug screen in 47 multiple myeloma cell lines against the NCATS MIPE library collection: KMS28BM_JCRB cell viability assay (AID 1919874); also: nearly all actives have a fitted effect of over 35% in size
- study.conditions: CellTiter-Glo ATP, 48 h; series mostly up to 45.8 µM
Inconclusive results are not listed. Active and inactive are the calls of the source. Calls follow the shape of the dose curve; as a rule, active = well fitted cell-killing curve with a large enough effect; inconclusive = small, poorly fitted or top-dose-only effect, or effect the other way; inactive = no such curve, though single readings can be large or run the other way. Positions of bridges follow the written chain, without caps; N, C: chain ends. Non-standard residues stand in square brackets, D forms with d. Residues, ends and D or L forms follow the SMILES beside them. ξ: configuration not given here. *: point of attachment. Octanoyl(6-Me) = CCC(C)CCCCC(=O)*; ξThr(3R) = C[C@@H](O)C(N)C(=O)O; dDab = NCC[C@@H](N)C(=O)O; Dab = NCC[C@H](N)C(=O)O
Form entry, call: pick from active, inactive

Please state the recorded outcome for this molecule: `O=c1[nH]c(=O)n([C@H]2C[C@@H](O)[C@@H](CO)O2)cc1C=CBr`
inactive

Please state the recorded outcome for this molecule: `Cc1nc(NC(=O)N2CCC[C@@H]2C(N)=O)sc1-c1ccnc(C(C)(C)C(F)(F)F)c1`
active

Please state the recorded outcome for this molecule: `Cc1cnn(C)c1C(=O)Nc1cc(Nc2ccc3c(C=Cc4ccccn4)n[nH]c3c2)ccc1F`
active

Please state the recorded outcome for this molecule: `COc1cc2c(cc1OC)[C@@H]1C(=O)c3ccc4c(c3O[C@@H]1CO2)C=CC(C)(C)O4`
active

Please state the recorded outcome for this molecule: `CC(=O)[C@]1(O)Cc2c(O)c3c(c(O)c2[C@@H](O[C@H]2C[C@H](N)[C@@H](O)[C@H](C)O2)C1)C(=O)c1ccccc1C3=O`
active

Please state the recorded outcome for this molecule: CCC(C)CCCCC(=O)N[C@@H](CCN)C(=O)NC(C(=O)N[C@H](CCN)C(=O)N[C@@H]1CCNC(=O)C([C@@H](C)O)NC(=O)[C@@H](CCN)NC(=O)[C@@H](CCN)NC(=O)[C@@H](CC(C)C)NC(=O)[C@H](Cc2ccccc2)NC(=O)[C@H](CCN)NC1=O)[C@@H](C)O (stereo partly drawn) ({Octanoyl(6-Me)}-[Dab][ξThr(3R)][dDab][dDab][Dab]F[dL][dDab][dDab][ξThr(3R)]; lactam 4-C)
inactive

====

- protocol.summary: Quantitative High-Throughput drug screen in 47 multiple myeloma cell lines against the NCATS MIPE library collection: H1112_PLB cell viability assay (AID 1918967; also: nearly all actives have a fitted effect of over 30% in size)
- study.conditions: H1112 myeloma cells viability, ATP luminescence, 48 h; series mostly up to 45.8 µM
Results filed as inconclusive are left out. Active and inactive are the calls of the source. Calls follow the shape of the dose curve; as a rule, active = well fitted cell-killing curve with a large enough effect; inconclusive = small, poorly fitted or top-dose-only effect, or effect the other way; inactive = no such curve, though single readings can be large or run the other way. Non-standard residues stand in square brackets, D forms with d. Residues, ends and D or L forms follow the SMILES beside them. *: point of attachment. Nva = CCC[C@H](N)C(=O)O; Cbz = O=C(OCc1ccccc1)*
Form entry, call: pick from true (1) for active, false (0) for inactive

Please state the recorded outcome for this molecule: CC1=C(C(=O)Nc2cc3cn[nH]c3cc2F)C(c2ccc(Cl)cc2F)N=C(c2ccnc(Cl)c2)N1 (centres undefined)
true (1)

Please state the recorded outcome for this molecule: `O=C(C=CC=Cc1ccc2c(c1)OCO2)N1CCCCC1`
false (0)

Please state the recorded outcome for this molecule: `C=CC[C@@H]1C=C(C)C[C@H](C)C[C@H](OC)[C@H]2O[C@@](O)(C(=O)C(=O)N3CCCC[C@H]3C(=O)O[C@H](C(C)=C[C@@H]3CC[C@H](O)[C@H](OC)C3)[C@@H](C)[C@@H](O)CC1=O)[C@@H](C)C[C@@H]2OC`
true (1)

Please state the recorded outcome for this molecule: Nc1ccn(C2CO[C@H](CO)O2)c(=O)n1 (some centres undefined)
false (0)

Please state the recorded outcome for this molecule: `Oc1ccc(-c2ccc(-c3cc(Nc4cccc(CNC5CC5)c4)n[nH]3)cc2)c(O)c1`
true (1)

Please state the recorded outcome for this molecule: C=C[C@@H]1CN2CCC1C[C@H]2[C@H](O)c1ccnc2ccc(OC)cc12 (some centres undefined)
false (0)

Please state the recorded outcome for this molecule: CCC[C@@H](C=O)NC(=O)[C@H](CC(C)C)NC(=O)[C@H](CC(C)C)NC(=O)OCc1ccccc1 (Cbz-Leu-Leu-[Nva]-aldehyde)
true (1)

Please state the recorded outcome for this molecule: `COc1cc(C(=O)NC2CCN(C)CC2)ccc1Nc1ncc2c(n1)N(C1CCCC1)CCC(=O)N2C(C)C`
true (1)

Please state the recorded outcome for this molecule: `C=C1C(=O)O[C@H]2[C@@H]1CCC(C)=CCC[C@@]1(C)O[C@@H]21`
true (1)

Please state the recorded outcome for this molecule: `Cc1ccc([N+](=O)[O-])cc1S(=O)(=O)N(C)N=Cc1cnc2ccc(Br)cn12`
true (1)

Please state the recorded outcome for this molecule: CC(Cc1ccc(O)c(O)c1)(NN)C(=O)O (centres undefined)
false (0)

Please state the recorded outcome for this molecule: `NC[C@H]1O[C@H](O[C@H]2[C@@H](O)[C@@H](O[C@H]3O[C@H](CO)[C@@H](O)[C@H](N)[C@@H]3O)[C@H](N)C[C@@H]2N)[C@H](N)C[C@H]1O`
false (0)

Please state the recorded outcome for this molecule: `CCN(CC)CCCCNc1ncc2c(n1)N(C)C(=O)N(c1c(Cl)c(OC)cc(OC)c1Cl)C2`
true (1)

Please state the recorded outcome for this molecule: `CN(C)CC[C@H](c1ccc(Cl)cc1)c1ccccn1`
false (0)

Please state the recorded outcome for this molecule: `O=c1[nH]c(=O)n([C@H]2C[C@@H](O)[C@@H](CO)O2)cc1C=CBr`
false (0)

Please state the recorded outcome for this molecule: `CC(C)(C)[N+]([O-])=Cc1ccc(S(=O)(=O)O)cc1S(=O)(=O)O`
false (0)

Please state the recorded outcome for this molecule: `COc1cc(C[C@@H](CO)[C@H](CO)Cc2ccc(O)c(OC)c2)ccc1O`
true (1)

Please state the recorded outcome for this molecule: `c1ccc(CNc2nc(NCc3ccccc3)c3ccccc3n2)cc1`
true (1)

Please state the recorded outcome for this molecule: `O=C(O)[C@H](CC(=O)N1C[C@@H]2CCCC[C@H]2C1)Cc1ccccc1`
false (0)

Please state the recorded outcome for this molecule: `CCC[C@H]1C[C@H](C(=O)N[C@@H]([C@@H]2O[C@@H](SC)[C@@H](O)[C@@H](O)[C@@H]2O)[C@H](C)Cl)N(C)C1`
false (0)

Please state the recorded outcome for this molecule: `O=C(CN1C(=O)C2(CCCC2)NC[C@H]1c1cc(F)cc(F)c1)Nc1ccc2c(c1)C[C@@]1(C2)C(=O)Nc2ncccc21`
false (0)

Please state the recorded outcome for this molecule: `C[C@H](NC(=O)C(C#N)=Cc1cccc(Br)n1)c1ccccc1`
true (1)

Please state the recorded outcome for this molecule: `O=C(Nc1nnc(-c2ccco2)o1)c1cc(-c2ccccc2)nc2ccccc12`
true (1)

Please state the recorded outcome for this molecule: `Nc1nc(N)c2nc(-c3cccc(O)c3)c(-c3cccc(O)c3)nc2n1`
true (1)

Please state the recorded outcome for this molecule: OC[C@H]1OC(O)C[C@@H](O)[C@H]1O (some centres undefined)
false (0)

Please state the recorded outcome for this molecule: `Cc1cn([C@@H]2O[C@H](CO)[C@@H](O)[C@H]2F)c(=O)[nH]c1=O`
false (0)

Please state the recorded outcome for this molecule: `CC(C)NC[C@@H](C(=O)N1CCN(c2ncnc3c2[C@H](C)C[C@H]3O)CC1)c1ccc(Cl)cc1`
true (1)

Please state the recorded outcome for this molecule: `Cc1cnc(Nc2ccc(CN3CCOCC3)cc2)nc1Nc1cccc(S(=O)(=O)NC(C)(C)C)c1`
true (1)

Please state the recorded outcome for this molecule: `CCOC(=O)N1CCN([N+]([O-])=NOc2ccc([N+](=O)[O-])cc2C#N)CC1`
true (1)

Please state the recorded outcome for this molecule: `CC(=O)O[C@H]1C[C@@H]2CC[C@H]3[C@H]4C[C@H]([N+]5(C)CCCCC5)[C@@H](OC(C)=O)[C@@]4(C)CC[C@@H]3[C@@]2(C)C[C@H]1N1CCCCC1`
false (0)

Please state the recorded outcome for this molecule: `CC1(C)[C@H](O[C@H]2O[C@H](C(=O)O)[C@@H](O)[C@H](O)[C@H]2O[C@@H]2O[C@H](C(=O)O)[C@@H](O)[C@H](O)[C@H]2O)CC[C@@]2(C)[C@H]1CC[C@]1(C)[C@H]2C(=O)C=C2[C@H]3C[C@@](C)(C(=O)O)CC[C@]3(C)CC[C@]21C`
false (0)

Please state the recorded outcome for this molecule: `C[C@H](NCc1ccc(OCc2cccc(F)c2)cc1)C(N)=O`
true (1)

Please state the recorded outcome for this molecule: `CC(C)(O)CC[C@@H](O)[C@](C)(O)[C@H]1CC[C@@]2(O)C3=CC(=O)[C@@H]4C[C@@H](O)[C@@H](O)C[C@]4(C)[C@@H]3CC[C@]12C`
false (0)

Please state the recorded outcome for this molecule: `O=C(c1ccc(F)cc1)N1CCC[C@H](c2nc(-c3ccc(F)cc3)no2)C1`
false (0)
